target: DLK (Homo sapiens, UniProt Q12852); construct: 10 nM DLK, catalytic domain, Carna Biosiences; purchased Carna Biosciences ('Carna Biosiences' [sic]); experiment: DLK biochemical assay (TR-FRET, MKK7 phosphorylation)
Sequence (Q12852 125-366 limits assumed): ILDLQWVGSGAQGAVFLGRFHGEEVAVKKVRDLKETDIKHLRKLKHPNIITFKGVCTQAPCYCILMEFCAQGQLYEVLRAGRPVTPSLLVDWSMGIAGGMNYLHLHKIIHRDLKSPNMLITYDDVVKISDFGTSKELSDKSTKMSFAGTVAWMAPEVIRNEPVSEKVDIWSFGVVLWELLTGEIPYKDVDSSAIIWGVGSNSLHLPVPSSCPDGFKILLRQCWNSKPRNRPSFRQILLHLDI
IC50: recorded values
Endpoint name: IC50 (nM)

>>> recorded_number("CC[C@@H](c1ccccc1)n1cc(-c2cc(-c3cnn(C(C)C(F)(F)F)c3)c3nc(N)nn3c2)cn1 (mixture of isomers) [II-94]")
22
>>> recorded_number("Nc1nc2cc(-c3cnn(C(c4ccc(C(F)(F)F)nc4)C4CCOCC4)c3)cc(-c3ccc(=O)n(CC(F)(F)F)c3)n2n1 (single isomer, unassigned) [II-192]")
1.3
>>> recorded_number("CC(C)C(c1ccc(C(F)(F)F)nc1)n1cc(-c2cc(-c3ccc(C(F)F)nc3)n3nc(N)nc3c2)cn1 (single isomer, unassigned) [II-71]")
160
